# experiment summary: NCI Yeast Anticancer Drug Screen. Data for the rad50 strain (AID 155);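 also: 0% = growth of vehicle-only cultures of the same strain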
# experimental conditions: S. cerevisiae rad50 strain growth inhibition; at 50.0 µM; active compounds read high
Compounds without any hit were thinned out: in the full panel of roughly 79,000, 15% have a hit. The source made the active and inactive calls. Rule as the data show it: active = growth inhibition above about 70%; inactive = the rest.
experimental readout: growth inhibition

// solved cases for growth inhibition follow
N#CCC(=O)N/N=C1\C(=O)N(c2ccc(Cl)cc2)C(=O)C(=O)C1c1nc2ccccc2o1 (stereo unspecified): 22.4% (inactive)
CC(O)(/C=C/c1ccccc1)P(=O)(O)c1ccccc1 (stereo unspecified): -40% (inactive)
Cc1cc(OCCN(C)C)cc(C)c1Cl: -2% (inactive)
CCN(CC)c1nc(Cl)nc(C(N)=O)c1N: 4.85% (inactive)
COc1ccc2c(CC(=O)O)cc(=O)oc2c1: 12.2% (inactive)

Per the record, O=C(COc1cccc(Cl)c1)Nc1ccc(Cl)cc1 has growth inhibition of -0.5% (inactive)

Per the record, OC(c1cc2ccccc2c2ccccc12)C1CCCCN1 (stereo unspecified) has growth inhibition of 21.9% (inactive)

Per the record, O=c1nc(-c2ccco2)sc(=O)[nH]1 has growth inhibition of -0.05% (inactive)

Per the record, CCCCCCCCCCCCCCCCOc1ccc(/C=N/Nc2ccccc2)cc1OC has growth inhibition of -20.1% (inactive)

Per the record, O=C(C[n+]1ccccc1)c1ccc([N+](=O)[O-])cc1 has growth inhibition of -3.35% (inactive)

Per the record, CCOC(=O)c1ccc(NC(=O)Nc2cc(Cl)ncn2)cc1 has growth inhibition of 10.1% (inactive)
